# experimentalSystem: isolated TDP-43 RRM2 (191–269) (Homo sapiens)
# Sequence (Q13148 191-269): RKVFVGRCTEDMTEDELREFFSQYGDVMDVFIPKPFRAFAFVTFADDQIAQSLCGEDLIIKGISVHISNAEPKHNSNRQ
# testDetails: 1H-15N HSQC NMR titration, one-site fit of chemical shift differences
measuredParameter: pKd
pKd (log units): -log10 of the concentration in mol/L.

Requested read-out pKd, target or system isolated TDP-43 RRM2 (191–269) (Homo sapiens), entry `Nc1ncnc2c1ncn2[C@@H]1O[C@H](COP(=O)(O)OP(=O)(O)OP(=O)(O)O)[C@@H](O)[C@H]1O`
1.78

---

# experimentalSystem: tethered hnRNPA1 RRM1–RRM2 (5–184) (Homo sapiens, UniProt P09651)
# Construct: ATP site in RRM2
# Sequence (P09651 5-184): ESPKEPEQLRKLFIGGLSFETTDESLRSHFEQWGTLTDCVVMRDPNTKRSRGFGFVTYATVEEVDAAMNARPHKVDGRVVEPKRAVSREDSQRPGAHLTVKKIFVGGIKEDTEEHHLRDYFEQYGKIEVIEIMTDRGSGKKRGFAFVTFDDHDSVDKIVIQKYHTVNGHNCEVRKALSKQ
# testDetails: 1H-15N HSQC NMR titration, one-site fit of chemical shift differences
measuredParameter: Kd (mM)
# unit: mM | format: bare number

Requested read-out Kd, target or system tethered hnRNPA1 RRM1–RRM2 (5–184) (Homo sapiens, UniProt P09651), entry `Nc1ncnc2c1ncn2[C@@H]1O[C@H](COP(=O)(O)OP(=O)(O)OP(=O)(O)O)[C@@H](O)[C@H]1O`
4.9
